Reference source for all entries: patent US10851083B2

# Enzyme pIC50 per record follows
- target_system: human PHD2181-417 (Homo sapiens (Human), UniProt Q9GZT9)
- Sequence (Q9GZT9 181-417): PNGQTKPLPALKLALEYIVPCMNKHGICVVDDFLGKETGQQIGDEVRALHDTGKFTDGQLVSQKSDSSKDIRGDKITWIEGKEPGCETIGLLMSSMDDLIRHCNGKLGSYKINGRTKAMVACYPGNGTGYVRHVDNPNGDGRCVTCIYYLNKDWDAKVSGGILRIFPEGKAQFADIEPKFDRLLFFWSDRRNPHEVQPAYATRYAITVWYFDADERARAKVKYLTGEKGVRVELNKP
- experimental_protocol: PHD2 enzyme activity assay ([14C]-succinic acid production);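 note: reaction ran 10 min with compound in Tris pH 7.5 buffer with catalase, DTT and ascorbate, labelled succinate freed of leftover 2-oxoglutarate by DNP precipitation, then beta counted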
- Assay type: biochemical
- assay_setup: PHD2181-417 polypeptide, HIF-1α peptide 10 μM, [5-14C]-2-oxoglutaric acid; 30 min pre-incubation; tested 10 μM to 3 nM
Lab note: jot the number down without any unit.

>>> df
                            chemical_string  data_value
0  CC(C)Sc1cc2[nH]c(-n3cc(C(=O)O)cn3)nc2cc1C(F)(F)F         7.2
1  O=C(O)c1cnn(-c2nc3cc(S(=O)(=O)c4ccccc4)c(Cl)cc3[nH]2)c1        7.57
2    O=C(O)c1cnn(-c2nc3nc4ccccc4nc3[nH]2)c1         5.5
3   CCSc1cc2[nH]c(-n3cc(C(=O)O)cn3)nc2cc1Cl         6.9

Q. Entry under review: O=C(O)c1cnn(-c2nc3cc(SCC4CCCCC4)c(Cl)cc3[nH]2)c1 . Reported Enzyme pIC50?
A. 6.9

###

- Test system: Hep-3B cells
- experimental_protocol: Cellular assay: EPO secretion in Hep-3B cells
- Format: cell-based, human
- assay_setup: 24 h, compound at 100 μM (10 μM or 100 μM), EPO secretion as percentage of control compound 7-[(4-Chloro-phenyl)-(5-methyl-isoxazol-3-ylamino)-methyl]-quinolin-8-ol
Cellular % EPO Stimulation values, listed per item
Include the unit right after the number.

Q. I am curious: what Cellular % EPO Stimulation value has been reported for O=C(O)c1cnn(-c2nc3cc(Br)ccc3[nH]2)c1 ?
A. 9.91%

Q. Reported Cellular % EPO Stimulation for O=C(O)c1cnn(-c2nc3ccccc3[nH]2)c1 : what is it?
A. 7.1%

Q. Which Cellular % EPO Stimulation reading was recorded for the compound O=C(O)c1cnn(-c2nc3cc(-c4cccc(OCc5ccccc5Cl)c4)ccc3[nH]2)c1 ?
A. 18%

Q. Would you kindly share the measured Cellular % EPO Stimulation for Cc1ccc2[nH]c(-n3cc(C(=O)O)cn3)nc2c1C ?
A. 10.7%

Q. What Cellular % EPO Stimulation value was documented for this compound, Cc1nn(-c2nc3cc(Br)ccc3[nH]2)c(C)c1C(=O)O ?
A. 7.24%

###

- target_system: human PHD2181-417 (Homo sapiens (Human))
- experimental_protocol: PHD2 enzyme activity assay ([14C]-succinic acid production)
- Type: biochemical
- assay_setup: PHD2181-417 polypeptide, HIF-1α peptide 10 μM, [5-14C]-2-oxoglutaric acid; 30 min pre-incubation; tested 10 μM to 3 nM
// Enzyme pIC50 lookup, one value per entry

>>> print(df.to_string())
                                   molecule  data_value
0  O=C(O)c1cnn(-c2nc3cc(F)c(N4CCCCC4)cc3[nH]2)c1 [Example 118]         6.8
1  Nc1cc2nc(-n3cc(C(=O)O)cn3)[nH]c2cc1Cl [Example 41]         6.4
2  O=C(O)c1cnn(-c2nc3cc(S(=O)(=O)Cc4c(Cl)cccc4Cl)c(Cl)cc3[nH]2)c1 [Example 177]         7.5

Q. Query (molecule): O=C(O)c1cnn(-c2nc3cc(F)ccc3[nH]2)c1 [Example 42] ; field requested: Enzyme pIC50
A. 6.3

Q. Find the recorded Enzyme pIC50 belonging to O=C(O)c1ccc2[nH]c(-n3cc(C(=O)O)cn3)nc2c1 [Example 47] and report it.
A. 6.6
